# Test system: A549
# measurement-protocol: Cytotoxicity against human A549 cells assessed as decrease in cell viability after 4 days by MTT assay
# Type: functional, cell-based
# test-parameters: A549, 96 h
measured-property: IC50

# annotated cases, reported IC50 shown
{"record-smiles": "Cc1c(O)ccc2c1[C@H](Cn1cc(-c3ccccc3)nn1)[C@@]13CC(=O)[C@@](C)(CC[C@@H]21)C3", "experimental-value": "> 20 µM"}
{"record-smiles": "Cc1ccc(S(=O)(=O)Oc2ccc3c(c2C)[C@H](Cn2cc(-c4ccc(Br)cc4)nn2)[C@@]24CC(=O)[C@@](C)(CC[C@@H]32)C4)cc1", "experimental-value": "> 20 µM"}
{"record-smiles": "C=C1C[C@]23C[C@@]1(O)CC[C@H]2c1ccc(OS(=O)(=O)c2ccc(C)cc2)c(C)c1[C@@H]3Cn1cc(-c2ccccn2)nn1", "experimental-value": "> 20 µM"}
{"record-smiles": "C=C1C[C@]23C[C@@]1(O)CC[C@H]2c1ccc(O)c(C)c1[C@@H]3Cn1cc(-c2ccc(OC)cc2)nn1", "experimental-value": "> 20 µM"}
{"record-smiles": "C=C1C[C@]23C[C@@]1(O)CC[C@H]2c1cc(Br)c(O)c(C)c1[C@@H]3Cn1cc(-c2ccccc2)nn1", "experimental-value": "> 20 µM"}

Would you mind listing IC50 for each of the following molecules?
1. C=C1C[C@]23C[C@@]1(O)CC[C@@H]2c1cccc(C)c1[C@@H]3Cn1cc(-c2ccc(Cl)cc2)nn1
2. C=C1C[C@]23C[C@@]1(O)CC[C@H]2c1cc(Br)c(O)c(C)c1[C@@H]3Cn1cc(-c2ccc(F)cc2)nn1
3. Cc1ccc(S(=O)(=O)Oc2ccc3c(c2C)[C@H](Cn2cc(-c4ccc(F)cc4)nn2)[C@@]24CC(=O)[C@@](C)(CC[C@@H]32)C4)cc1

Output:
1: > 20 µM; 2: 17.9 µM; 3: > 20 µM

Would you mind listing IC50 for each of the following molecules?
1. CC(=O)O[C@H]1C(=O)[C@@]2(C)[C@H]([C@H](OC(=O)c3ccccc3)[C@]3(O)C[C@H](OC(=O)[C@H](O)[C@@H](NC(=O)c4ccccc4)c4ccccc4)C(C)=C1C3(C)C)[C@]1(OC(C)=O)CO[C@@H]1C[C@@H]2O
2. C=C1C[C@]23C[C@@]1(O)CC[C@H]2c1ccc(OS(=O)(=O)c2ccc(C)cc2)c(C)c1[C@@H]3Cn1cc(-c2ccc(Cl)cc2)nn1
3. COc1ccc(-c2cn(C[C@H]3c4c(ccc(O)c4C)[C@@H]4CC[C@@]5(C)C[C@]43CC5=O)nn2)cc1

Output:
1. < 0.008 µM
2. > 20 µM
3. > 20 µM

Would you mind listing IC50 for each of the following molecules?
1. Cc1ccc(S(=O)(=O)Oc2ccc3c(c2C)[C@H](Cn2cc(-c4ccc(C(F)(F)F)cc4)nn2)[C@@]24CC(=O)[C@@](C)(CC[C@@H]32)C4)cc1
2. C=C1C[C@]23C[C@@]1(O)CC[C@H]2c1cc(Br)c(O)c(C)c1[C@@H]3Cn1cc(-c2ccc(Cl)cc2)nn1
3. C=C1C[C@]23C[C@@]1(O)CC[C@H]2c1ccc(OS(=O)(=O)c2ccc(C)cc2)c(C)c1[C@@H]3Cn1cc(-c2ccccc2)nn1
4. C=C1C[C@]23C[C@@]1(O)CC[C@H]2c1ccc(OS(=O)(=O)c2ccc(C)cc2)c(C)c1[C@@H]3Cn1cc(-c2ccc(F)cc2)nn1
5. C=C1C[C@]23C[C@@]1(O)CC[C@@H]2c1cccc(C)c1[C@@H]3Cn1cc(-c2ccc(Br)cc2)nn1
6. C=C1C[C@]23C[C@@]1(O)CC[C@@H]2c1cccc(C)c1[C@@H]3Cn1cc(-c2ccc(C(F)(F)F)cc2)nn1

Output:
1: > 20 µM; 2: 10.5 µM; 3: > 20 µM; 4: > 20 µM; 5: > 20 µM; 6: > 20 µM

// provenance: ChEMBL document CHEMBL4219271
